Recorded EC50 (nM), pAKT signaling assay for the following binders
system_under_test: cynomolgus insulin receptor (INSR) on CHOK1 cells (cyno, UniProt A0A7N9D6H3 48-1390)
test_description: cell-based or functional assay
Report only the number, with the unit nM understood.

These solved cases illustrate the format of a correct answer.
binder: XPA.15.247 Fab (Fab, V domains shown, Monomeric Fab; also called Fab247; XPA.15.247 parent Fab) VH: EVQLVETGGGVVQPGRSLRLSCAASGFTFSSYAMHWVRQAPGKGLEWVAVISYDGSNKYYADSVKGRFTISRDNSKNTLYLQMNSLRAEDTAVYYCARHEWGFGMDVWGQGTTVTVSS VL: DVVMTQSPLSLSVTLGQPASISCRSSLSLVYGDENTYLNWFQQRPGQSPRRLLYKVSDRDSGVPDRFSGSGSGTDFTLKISRVEADDVGVYYCMQGTHWPYTFGQGTKLEIKR
value_units: nM
EC50 (nM), pAKT signaling assay: 82.4
--
binder: XPA.15.247.2.014 IgG (antibody, V domains shown, Tested as IgG; also called XPA.15.247.014) VH: EVQLVETGGGVVQPGRSLRLSCAASGFTFSSYAMHWVRQAPGKGLEWVAVISYSGSNKYYADSVKGRFTISRDNSKNTLYLQMNSLRAEDTAVYYCARHEWGFGFDYWGQGTTVTVSS VL: DVVMTQSPLSLPVTLGQPASISCRSSQSLVYGDGNTYLNWFQQRPGQSPRRLIYKVSKRDSGVPDRFSGSGSGTDFTLKISRVEAEDVGVYYCMQGTYWPMTFGGGTKLEIKR
value_units: nM
EC50 (nM), pAKT signaling assay: 1.7
--
binder: XPA.15.247.2.018 Fab (Fab, V domains shown, Monomeric Fab; also called XPA.247.2.018) VH: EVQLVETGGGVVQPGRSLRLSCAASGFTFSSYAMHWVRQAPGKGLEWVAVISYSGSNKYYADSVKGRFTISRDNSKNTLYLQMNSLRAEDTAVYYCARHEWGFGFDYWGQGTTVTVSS VL: DVVMTQSPLSLPVTLGQPASISCRSSQSLVYGDGNTYLNWFQQRPGQSPRRLIYKVSNRDSGVPDRFSGSGSGTEFTLKISRVEAEDVGVYFCMQGTYWPGTFGGGTKLEIKR
value_units: nM
EC50 (nM), pAKT signaling assay: 2.8
--
binder: XPA.15.247 parent antibody (IgG) (antibody, V domains shown, Tested as IgG; also called XPA.15.247 antibody) VH: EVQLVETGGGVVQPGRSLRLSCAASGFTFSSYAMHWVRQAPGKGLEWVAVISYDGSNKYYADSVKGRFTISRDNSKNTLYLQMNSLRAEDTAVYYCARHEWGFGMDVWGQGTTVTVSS VL: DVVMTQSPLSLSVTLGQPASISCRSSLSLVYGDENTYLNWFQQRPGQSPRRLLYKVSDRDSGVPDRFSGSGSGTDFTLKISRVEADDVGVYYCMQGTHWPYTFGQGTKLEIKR
value_units: nM
EC50 (nM), pAKT signaling assay: 30.7

Prompt line: Could you tell me which EC50 (nM), pAKT signaling assay is on file for XPA.15.247.2.011 IgG (antibody, V domains shown, Tested as IgG; also called XPA.15.247.011) VH: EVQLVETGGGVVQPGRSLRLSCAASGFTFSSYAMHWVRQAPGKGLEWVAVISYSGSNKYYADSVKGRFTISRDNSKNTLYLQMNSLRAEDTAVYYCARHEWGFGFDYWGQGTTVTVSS VL: DVVMTQSPLSLPVTLGQPASISCRSSHSLVYGDGNTYLNWFHQRPGQSPRRLIYKVSNRDSGVPDRFAGSGSGTDFTLKISRVEADDFGVFYCMQGTHWPYTFGQGTKLEIKR ?
Response line: 1.3

Prompt line: Report EC50 (nM), pAKT signaling assay for XPA.15.247.2.011 Fab (Fab, V domains shown, Fab; also called XPA.15.247.011) VH: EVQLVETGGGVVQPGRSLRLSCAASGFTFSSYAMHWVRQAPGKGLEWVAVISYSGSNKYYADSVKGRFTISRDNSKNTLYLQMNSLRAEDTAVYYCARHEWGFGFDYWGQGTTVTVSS VL: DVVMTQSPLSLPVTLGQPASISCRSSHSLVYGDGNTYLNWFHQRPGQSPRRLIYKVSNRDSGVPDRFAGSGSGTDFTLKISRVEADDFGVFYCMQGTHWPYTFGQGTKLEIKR please.
Response line: 6.2

Prompt line: Suppose we examine the binder XPA.15.247.2.018 IgG (antibody, V domains shown, Tested as IgG; also called XPA.15.247.2.018 antibody) VH: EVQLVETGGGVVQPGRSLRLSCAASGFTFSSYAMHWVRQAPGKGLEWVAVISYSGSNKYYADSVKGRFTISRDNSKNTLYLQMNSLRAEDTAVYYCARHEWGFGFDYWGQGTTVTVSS VL: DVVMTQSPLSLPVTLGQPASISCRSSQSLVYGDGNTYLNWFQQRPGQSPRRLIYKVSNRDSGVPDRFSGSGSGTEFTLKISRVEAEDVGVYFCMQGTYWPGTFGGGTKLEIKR ; what EC50 (nM), pAKT signaling assay value has been reported?
Response line: 0.2

Reference source: patent US20180251562A1
